Where do these numbers come from? They come from ChEMBL document CHEMBL4043205.

The reader will find reported pKi values listed item by item below.
assay-name: Inhibition of Aspergillus oryzae beta-galactosidase using 2-chloro-4-nitrophenyl b-dgalactopyranoside substrate
Field pKi (float): negative decimal logarithm of the concentration in molar.

Examples from the recorded data:
molecule	numeric-readout
O=C1N[C@H](CO)[C@H](O)[C@H](O)[C@H]1O	6.21
OC[C@H]1N/C(=N\Cc2ccccc2)[C@H](O)[C@@H](O)[C@H]1O	7.68
CCCCC(CC)CNC1=N[C@H](CO)[C@H](O)[C@H](O)[C@H]1O (stereo not given in full)	8.11
OC[C@H]1N/C(=N\Cc2cccc(F)c2)[C@H](O)[C@@H](O)[C@H]1O	7.69

Query :: Please give the measured pKi for this molecule: `OC[C@H]1N/C(=N\CCCc2ccccc2)[C@H](O)[C@@H](O)[C@H]1O`
Result :: 8.07

* * *

assay-name: Inhibition of Aspergillus oryzae beta-galactosidase using 2-chloro-4-nitrophenyl b-dgalactopyranoside substrate
In this section we review reported Ki values for a set of compounds.
Report field: quantity (unit follows the number).

CCC/N=C1\N[C@H](CO)[C@H](O)[C@H](O)[C@H]1O 149 nM

Query :: Quick one: Ki of `OC[C@H]1N/C(=N\CC2CC2)[C@H](O)[C@@H](O)[C@H]1O` ?
Result :: 9.5 nM

Query :: Same for `N=C1N[C@H](CO)[C@H](O)[C@H](O)[C@H]1O`
Result :: 150 nM

* * *

target-of-assay: Beta-galactosidase (Bos taurus)
assay-name: Competitive inhibition of bovine liver beta-galactosidase using 4-nitrophenyl-beta-D-galactopyranoside substrate measured over 240 mins at 10 mins intervals by UV/Vis spectroscopy based Lineweaver-Burk plot
Activity calls are given as the source filed them. No cut-off for these calls is given here.
measured-attribute: Inhibition mode (qualitative, Lineweaver-Burk)

Known results for molecules:
OC[C@H]1N/C(=N\CCCc2ccccc2)[C@H](O)[C@@H](O)[C@H]1O Active
OC[C@H]1N/C(=N\Cc2ccccc2)[C@H](O)[C@@H](O)[C@H]1O Active
Cc1cccc(C/N=C2\N[C@H](CO)[C@H](O)[C@H](O)[C@H]2O)c1 Active
OC[C@H]1N/C(=N\CC2CCCCC2)[C@H](O)[C@@H](O)[C@H]1O Active

Now, please, on to the next molecule.
Query :: Recorded Inhibition mode (qualitative, Lineweaver-Burk) of `CO[C@@H]1[C@H](O)[C@@H](O)C(NCc2ccc(C)cc2)=N[C@@H]1CO` , please.
Result :: Active

* * *

assay-name: Inhibition of Aspergillus oryzae beta-galactosidase using 2-chloro-4-nitrophenyl b-dgalactopyranoside substrate relative to control
measured-attribute: pIC50
pIC50 (log units): -log10 of the concentration in mol/L.

Some solved cases for reference:
CCC/N=C1\N[C@H](CO)[C@H](O)[C@H](O)[C@H]1O 6.65
CC(C)(C)c1ccc(C/N=C2\N[C@H](CO)[C@H](O)[C@H](O)[C@H]2O)cc1 6.91
CO[C@@H]1[C@H](O)[C@@H](O)C(NCc2ccc(C)cc2)=N[C@@H]1CO 4.39
OC[C@H]1N/C(=N\CC2CC2)[C@H](O)[C@@H](O)[C@H]1O 7.44

Okay, next one:
Query :: Which pIC50 is listed for `Cc1ccc(C/N=C2\N[C@H](CO)[C@H](O)[C@H](O)[C@H]2O)cc1` ?
Result :: 7.44

* * *

assay-name: Inhibition of Aspergillus oryzae beta-galactosidase using 2-chloro-4-nitrophenyl b-dgalactopyranoside substrate
Reported Ki values are given for each entry in this list.
The response must be a number in nM with no trailing unit.

Look over these answered cases.
CCCCCCCCCCCNC1=N[C@H](CO)[C@H](O)[C@H](O)[C@H]1O 48.4
CO[C@@H]1[C@H](O)[C@@H](O)C(NCc2ccc(C)cc2)=N[C@@H]1CO 1400
OC[C@H]1N/C(=N\Cc2ccc(F)cc2)[C@H](O)[C@@H](O)[C@H]1O 10.1
CC(C)(C)c1ccc(C/N=C2\N[C@H](CO)[C@H](O)[C@H](O)[C@H]2O)cc1 20.6
Cc1cccc(C/N=C2\N[C@H](CO)[C@H](O)[C@H](O)[C@H]2O)c1 29.4

Query :: Look up Ki for this molecule: `OC[C@H]1N/C(=N\CC2CCCCCC2)[C@H](O)[C@@H](O)[C@H]1O`
Result :: 6.3

Query :: And for `Cc1ccc(C/N=C2\N[C@H](CO)[C@H](O)[C@H](O)[C@H]2O)cc1` ?
Result :: 8

Query :: Try this molecule too: `Cc1ccc(CNC2=N[C@H](CO)[C@H](O)[C@H](O)C2)cc1`
Result :: 2400

Query :: Same thing, different molecule: `OC[C@H]1N/C(=N\C2CCCCC2)[C@H](O)[C@@H](O)[C@H]1O`
Result :: 602
